A collection of sequences and their measured pKd
targetDesc: HLA-A*24:02
methodSummary: IEDB peptide-MHC binding, purified MHC/direct/fluorescence; filed as Kd, often an IC50 or EC50 that approximates it; bounds were set here for any values at or beyond the usual limits of such assays
conditionSummary: source organism: Giardia lamblia ATCC 50803
pKd: −log10 of the molar value.

Please review the following examples before continuing.
>>> result("IVKYKQYLK")
"≤ 4.70"
>>> result("SVFHEHIFK")
"≤ 4.70"

I'd like to know its pKd. The sequence in question is "YIASIFMPR" ≤ 4.70

----------
targetDesc: HLA-B*57:01
methodSummary: IEDB peptide-MHC binding, purified MHC/direct/fluorescence; filed as Kd, often an IC50 or EC50 that approximates it; bounds were set here for any values at or beyond the usual limits of such assays
conditionSummary: source organism: Giardia lamblia ATCC 50803
reportedEndpoint: Kd (nM)
State the answer as a number, implicitly in nM.

Given the entry "RTRPPPCPH" , what Kd was observed with HLA-B*57:01? 935
